The origin of these recorded values is patent US20160287589A1.

# test-target: MKNK1 (Homo sapiens, UniProt Q9BUB5, T385D)
# Construct: GST (N); purchased Carna Biosciences 02-145; host or cells: insect cells (baculovirus expression system)
# Sequence (Q9BUB5 1-424 isoform Q9BUB5-2 T344D): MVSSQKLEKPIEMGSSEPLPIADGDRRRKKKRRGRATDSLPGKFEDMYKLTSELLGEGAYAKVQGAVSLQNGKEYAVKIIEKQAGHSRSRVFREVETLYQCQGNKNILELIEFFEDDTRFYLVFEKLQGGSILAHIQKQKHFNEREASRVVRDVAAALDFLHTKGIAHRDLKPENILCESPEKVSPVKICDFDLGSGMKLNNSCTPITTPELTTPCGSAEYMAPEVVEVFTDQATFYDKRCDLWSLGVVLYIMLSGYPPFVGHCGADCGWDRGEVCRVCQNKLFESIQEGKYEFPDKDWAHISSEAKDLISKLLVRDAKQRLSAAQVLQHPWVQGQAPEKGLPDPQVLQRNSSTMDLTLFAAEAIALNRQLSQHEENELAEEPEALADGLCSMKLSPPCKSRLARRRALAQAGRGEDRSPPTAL
# assay-explanation: MKNK1 kinase high ATP assay (TR-FRET-based)
# Type: biochemical
# recorded-conditions: Table 2a; 2 mM ATP, 15 min preincubation
For each entry below, report its IC50 value.
Number first, unit second.

Qu. Fill in the blank: the reported IC50 of CCCCC(=O)NCCOc1ccc2ncc(-c3cc4ccccc4o3)n2n1 is ____.
Ans. 16.7 nM

Qu. Fill in the blank: the reported IC50 of COc1cccc2oc(-c3cnc4ccc(OC[C@H]5CN(C(=O)C6CC6)CCO5)nn34)cc12 is ____.
Ans. 7 nM

Qu. Fill in the blank: the reported IC50 of CC(=O)N1CCOC(COc2ccc3ncc(-c4cc5ccccc5o4)n3n2)C1 (centres unmarked) is ____.
Ans. 23.5 nM

Qu. Fill in the blank: the reported IC50 of O=C(NCCOc1ccc2ncc(-c3cc4ccccc4o3)n2n1)c1cccs1 is ____.
Ans. 10.5 nM

Qu. Fill in the blank: the reported IC50 of O=C(c1ccccc1)N1CCOC(COc2ccc3ncc(-c4cc5ccccc5o4)n3n2)C1 (centres unmarked) is ____.
Ans. 13.3 nM

----------
# test-target: MKNK1 (Homo sapiens, UniProt Q9BUB5, T385D)
# Construct: GST (N); purchased Carna Biosciences 02-145; host or cells: insect cells (baculovirus expression system)
# assay-explanation: MKNK1 kinase high ATP assay (TR-FRET-based)
# Type: biochemical
# recorded-conditions: Table 2c; 2 mM ATP, 15 min preincubation
Hi! Could you tag entries with IC50 below 5 nM as TRUE, and those at or above as FALSE? Much appreciated.

Qu. Is IC50 strictly under 5 nM for the entry O=C1CC[C@H](COc2ccc3ncc(-c4cc5c(N6CCC[C@@H]6CO)nccc5o4)n3n2)N1 ?
Ans. FALSE

Qu. Is IC50 strictly under 5 nM for the entry COc1ccc2ncc(-c3cc4c(N5CCO[C@@H](C)C5)nccc4o3)n2n1 ?
Ans. TRUE

Qu. Is IC50 strictly under 5 nM for the entry CN(CCCO)c1nccc2oc(-c3cnc4ccc(OCCCS(C)(=O)=O)nn34)cc12 ?
Ans. FALSE

Qu. Is IC50 strictly under 5 nM for the entry CCCN(CCOC)c1nccc2oc(-c3cnc4ccc(OC[C@H]5CCC(=O)N5)nn34)cc12 ?
Ans. TRUE

Qu. Is IC50 strictly under 5 nM for the entry CN1CCC(N(C)c2nccc3oc(-c4cnc5ccc(OC[C@H]6CCC(=O)N6)nn45)cc23)CC1 ?
Ans. FALSE

Qu. Is IC50 strictly under 5 nM for the entry CN(CCCN1CCCC1)c1nccc2oc(-c3cnc4ccc(O[C@H]5C[C@H](N)C5)nn34)cc12 ?
Ans. FALSE

Qu. Is IC50 strictly under 5 nM for the entry CCN(CCOC)c1nccc2oc(-c3cnc4ccc(O[C@H]5C[C@H](N)C5)nn34)cc12 ?
Ans. TRUE

Qu. Is IC50 strictly under 5 nM for the entry CS(=O)(=O)CCCOc1ccc2ncc(-c3cc4c(N5CCC(CO)CC5)nccc4o3)n2n1 ?
Ans. TRUE

Qu. Is IC50 strictly under 5 nM for the entry N[C@H]1C[C@H](Oc2ccc3ncc(-c4cc5c(N6CCN(c7ccccc7)CC6)nccc5o4)n3n2)C1 ?
Ans. FALSE

Qu. Is IC50 strictly under 5 nM for the entry C[C@H](N)COc1ccc2ncc(-c3cc4c(N5CCCC5)nccc4o3)n2n1 ?
Ans. FALSE

Qu. Is IC50 strictly under 5 nM for the entry COCCN(C)c1nccc2oc(-c3cnc4ccc(OCCCS(C)(=O)=O)nn34)cc12 ?
Ans. TRUE

Qu. Is IC50 strictly under 5 nM for the entry CN(C)[C@H]1CCN(c2nccc3oc(-c4cnc5ccc(OC[C@H]6CCC(=O)N6)nn45)cc23)C1 ?
Ans. TRUE

Qu. Is IC50 strictly under 5 nM for the entry CN(C)[C@H]1CCN(c2nccc3oc(-c4cnc5ccc(OCCCS(C)(=O)=O)nn45)cc23)C1 ?
Ans. FALSE

Qu. Is IC50 strictly under 5 nM for the entry CC(C)(C)N1CCN(c2nccc3oc(-c4cnc5ccc(O[C@H]6C[C@H](N)C6)nn45)cc23)CC1 ?
Ans. FALSE

Qu. Is IC50 strictly under 5 nM for the entry CCN(CCOC)c1nccc2oc(-c3cnc4ccc(O[C@H](C)CN)nn34)cc12 ?
Ans. TRUE

Qu. Is IC50 strictly under 5 nM for the entry CCN(CCOC)c1nccc2oc(-c3cnc4ccc(O[C@H]5Cc6ccccc6[C@H]5N)nn34)cc12 ?
Ans. FALSE

Qu. Is IC50 strictly under 5 nM for the entry C[C@H](N)COc1ccc2ncc(-c3cc4c(N5CCC[C@@H]5CO)nccc4o3)n2n1 ?
Ans. FALSE

Qu. Is IC50 strictly under 5 nM for the entry COCCN(C)c1nccc2oc(-c3cnc4ccc(OC[C@H]5CCC(=O)N5)nn34)cc12 ?
Ans. TRUE

Qu. Is IC50 strictly under 5 nM for the entry CN(CCCO)c1nccc2oc(-c3cnc4ccc(OC[C@H]5CCC(=O)N5)nn34)cc12 ?
Ans. TRUE

Qu. Is IC50 strictly under 5 nM for the entry C[C@@H]1COCCN1c1nccc2oc(-c3cnc4ccc(OC[C@@H]5CCC(=O)N5)nn34)cc12 ?
Ans. FALSE

Qu. Is IC50 strictly under 5 nM for the entry CC1(C)CN(c2nccc3oc(-c4cnc5ccc(OC[C@@H]6CCC(=O)N6)nn45)cc23)CCN1 ?
Ans. TRUE

Qu. Is IC50 strictly under 5 nM for the entry CN(C)C1CCN(c2nccc3oc(-c4cnc5ccc(OCCCS(C)(=O)=O)nn45)cc23)CC1 ?
Ans. FALSE

Qu. Is IC50 strictly under 5 nM for the entry CN1CCC(N(C)c2nccc3oc(-c4cnc5ccc(O[C@H]6C[C@H](N)C6)nn45)cc23)CC1 ?
Ans. FALSE

Qu. Is IC50 strictly under 5 nM for the entry COc1ccc2ncc(-c3cc4c(N5CCO[C@H](C)C5)nccc4o3)n2n1 ?
Ans. FALSE

Qu. Is IC50 strictly under 5 nM for the entry O=C1CC[C@H](COc2ccc3ncc(-c4cc5c(N6CCOCC6)nccc5o4)n3n2)N1 ?
Ans. TRUE

Qu. Is IC50 strictly under 5 nM for the entry COc1ccc2ncc(-c3cc4c(N5CCN(c6ccccc6)CC5)nccc4o3)n2n1 ?
Ans. FALSE

Qu. Is IC50 strictly under 5 nM for the entry CCN(CCOC)c1nccc2oc(-c3cnc4ccc(OC[C@H]5COCCN5)nn34)cc12 ?
Ans. TRUE

Qu. Is IC50 strictly under 5 nM for the entry CCN(CCOC)c1nccc2oc(-c3cnc4ccc(OC[C@H](C)N)nn34)cc12 ?
Ans. TRUE

Qu. Is IC50 strictly under 5 nM for the entry O=C1CC[C@H](COc2ccc3ncc(-c4cc5c(N6CCCCC6)nccc5o4)n3n2)N1 ?
Ans. TRUE

Qu. Is IC50 strictly under 5 nM for the entry C[C@H](CN)Oc1ccc2ncc(-c3cc4c(N5CCOCC5)nccc4o3)n2n1 ?
Ans. FALSE

Qu. Is IC50 strictly under 5 nM for the entry C[C@H](N)COc1ccc2ncc(-c3cc4c(N5CCC(N(C)C)CC5)nccc4o3)n2n1 ?
Ans. FALSE

----------
# test-target: MKNK1 (Homo sapiens, UniProt Q9BUB5, T385D)
# Construct: GST (N); purchased Carna Biosciences 02-145; host or cells: insect cells (baculovirus expression system)
# assay-explanation: MKNK1 kinase high ATP assay (TR-FRET-based)
# Format: biochemical
# recorded-conditions: Table 2c; 2 mM ATP, 15 min preincubation
For each entry below, report its IC50 value.
Number first, unit second.

Qu. Fill in the blank: the reported IC50 of C[C@@H]1COCCN1c1nccc2oc(-c3cnc4ccc(O[C@H]5C[C@H](N)C5)nn34)cc12 is ____.
Ans. 11.8 nM

Qu. Fill in the blank: the reported IC50 of COc1ccc2ncc(-c3cc4c(N5CCOC(C)(C)C5)nccc4o3)n2n1 is ____.
Ans. 8.7 nM

Qu. Fill in the blank: the reported IC50 of C[C@@H](N)COc1ccc2ncc(-c3cc4c(N5CCOC[C@@H]5C)nccc4o3)n2n1 is ____.
Ans. 10.1 nM

Qu. Fill in the blank: the reported IC50 of C[C@H](N)COc1ccc2ncc(-c3cc4c(N5CCNCC5)nccc4o3)n2n1 is ____.
Ans. 44.2 nM

----------
For each entry below, report its IC50 value.
# test-target: MKNK1 (Homo sapiens, UniProt Q9BUB5, T385D)
# Construct: GST (N); purchased Carna Biosciences 02-145; host or cells: insect cells (baculovirus expression system)
# assay-explanation: MKNK1 kinase high ATP assay (TR-FRET-based)
# Format: biochemical
# recorded-conditions: Table 2c; 2 mM ATP, 15 min preincubation
Number first, unit second.

Qu. Fill in the blank: the reported IC50 of COc1ccc2ncc(-c3cc4c(N5CCNC(C)(C)C5)nccc4o3)n2n1 [III-130] is ____.
Ans. 1.5 nM

Qu. Fill in the blank: the reported IC50 of COc1ccc2ncc(-c3cc4c(N5CCN[C@H](C)C5)nccc4o3)n2n1 [III-144] is ____.
Ans. 6.7 nM

Qu. Fill in the blank: the reported IC50 of COCCN(C)c1nccc2oc(-c3cnc4ccc(O[C@H](C)CN)nn34)cc12 [III-34] is ____.
Ans. 7.4 nM

Qu. Fill in the blank: the reported IC50 of COCCN(C)c1nccc2oc(-c3cnc4ccc(OC[C@H](C)N)nn34)cc12 [III-16] is ____.
Ans. 6 nM

Qu. Fill in the blank: the reported IC50 of CCCN(CCOC)c1nccc2oc(-c3cnc4ccc(O[C@H](C)CN)nn34)cc12 [III-33] is ____.
Ans. 1.3 nM

Qu. Fill in the blank: the reported IC50 of CCN(CCOC(C)(C)C)c1nccc2oc(-c3cnc4ccc(OC[C@H](C)N)nn34)cc12 [III-26] is ____.
Ans. 0.8 nM

Qu. Fill in the blank: the reported IC50 of COC[C@H]1CCCN1c1nccc2oc(-c3cnc4ccc(OC[C@H](C)N)nn34)cc12 [III-24] is ____.
Ans. 8.6 nM

Qu. Fill in the blank: the reported IC50 of CCN(CCOC)c1nccc2oc(-c3cnc4ccc(OCCC[S@@](C)(=O)=NC#N)nn34)cc12 [III-137] is ____.
Ans. 0.6 nM

Qu. Fill in the blank: the reported IC50 of O=C1CC[C@H](COc2ccc3ncc(-c4cc5c(N6CCNCC6)nccc5o4)n3n2)N1 [III-71] is ____.
Ans. 1.4 nM

Qu. Fill in the blank: the reported IC50 of C[C@H](N)COc1ccc2ncc(-c3cc4c(N5CCC(CO)CC5)nccc4o3)n2n1 [III-22] is ____.
Ans. 14.1 nM

Qu. Fill in the blank: the reported IC50 of CCN(CCOC)c1nccc2oc(-c3cnc4ccc(OC[C@@H]5COCCN5)nn34)cc12 [III-35] is ____.
Ans. 0.9 nM

Qu. Fill in the blank: the reported IC50 of O=C1CC[C@H](COc2ccc3ncc(-c4cc5c(N6CCC(CO)CC6)nccc5o4)n3n2)N1 [III-77] is ____.
Ans. 1.1 nM

Qu. Fill in the blank: the reported IC50 of CN1CCN(c2nccc3oc(-c4cnc5ccc(OC[C@H]6CCC(=O)N6)nn45)cc23)CC1 [III-61] is ____.
Ans. 1.2 nM

Qu. Fill in the blank: the reported IC50 of C[C@@H](N)COc1ccc2ncc(-c3cc4c(N5CCOC(C)(C)C5)nccc4o3)n2n1 [III-124] is ____.
Ans. 13.9 nM
